All values here come from paper PMC10397247.

Biological target: T1, P6-AA-1HAA-H
T1 chain: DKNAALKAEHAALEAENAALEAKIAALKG
Assay: two-hybrid library CCmax;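 also: natural log of median RNA to DNA barcode read ratio; higher means stronger binding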
Conditions: mean of both orientations
Consider the following binders; for each one, report its interaction score.
Lab note: record the figure alone, no unit after it.

Task: Would you kindly share the measured interaction score for DENAALEAKAAALKAKNAALKAEIAALEG [P5-AA-1HAA-A] ?
Output: -0.274

Task: Ok, now DENAALEAKHAALKAKNAALKAEIAALEG [P5-AA-1HAA-H]
Output: -0.596

Task: What do we get for DENAALEAKDAALKAKNAALKAEIAALEG [P5-AA-1HAA-D] ?
Output: -0.764

Task: Quick one: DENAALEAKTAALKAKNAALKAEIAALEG [P5-AA-1HAA-T]
Output: 1.47
